System: T1, human TIGIT on the cell surface (human, UniProt Q495A1 22-244)
T1 construct: Expressed on engineered Jurkat cells or naturally on human primary CD8+ T cells (the cells are named under assay); also called Human TIGIT Jurkat; human TIGIT expressing Jurkat cells
T1 sequence: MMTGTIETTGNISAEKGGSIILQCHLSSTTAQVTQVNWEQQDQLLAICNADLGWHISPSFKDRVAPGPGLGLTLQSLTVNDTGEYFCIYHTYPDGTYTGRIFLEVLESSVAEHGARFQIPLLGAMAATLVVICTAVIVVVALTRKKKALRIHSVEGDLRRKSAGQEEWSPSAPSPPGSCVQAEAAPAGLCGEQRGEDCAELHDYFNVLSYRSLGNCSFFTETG
Assay Procedure: flow cytometry, antibody titrated against labeled PVRL2-Fc binding to human TIGIT Jurkat cells
Parameter: IC50 (nM)

INSERT INTO measurements (binder, value_units, value_measured) VALUES
  ('MAB3-IgG4 (antibody, V domains shown) VH: QLQLQESGPGLVKPSETLSLTCTVSGGSISSTSHYWGWIRQPPGKGLEWIGSIYYSGSTFYNPSLKSRVTISVDTSKNQFSLKLSSVTAADTAVYYCARDANYYGSAWAFDPWGQGTLVTVSS VL: EIVLTQSPATLSLSPGERATLSCRASQSVSSYLAWYQQKPGQAPRLLIYDASNRATGIPARFSGSGSGTDFTLTISSLEPEDFAVYYCQQHFNLPTFGGGTKVEIKR', 'nM', 1.2),
  ('MAB2-IgG4 (antibody, V domains shown) VH: QLQLQESGPGLVKPSETLSLTCTVSGGSISSSKYYWGWIRQPPGKGLEWIGSIYYSGSTFYNPSLKSRVTISVDTSKNQFSLKLSSVTAADTAVYYCARDANYYGSAWAFDPWGQGTLVTVSS VL: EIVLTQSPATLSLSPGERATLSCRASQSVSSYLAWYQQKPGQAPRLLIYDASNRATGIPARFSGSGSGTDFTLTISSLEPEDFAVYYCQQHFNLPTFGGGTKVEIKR', 'nM', 1.3),
  ('MAB13-IgG4 (antibody, V domains shown) VH: QVQLVQSGAEVKKPGASVKVSCKASGYTFGNYYMHWVRQAPGQGLEWMGIINPSLGLTSYAQKFQGRVTMTRDTSTSTVYMELSSLRSEDTAVYYCARGGRTTWIGAFDIWGQGTMVTVSS VL: EIVMTQSPATLSVSPGERATLSCRASQSVSSNLAWYQQKPGQAPRLLIYGASTRATGIPARFSGSGSGTEFTLTISSLQSEDFAVYYCQQYVVWPPLTFGGGTKVEIKR', 'nM', 1.8);
